Consider the following sequences; for each one, report its apparent KD of MS2 coat protein.
# Test system: MS2 coat protein
# experiment.notes: apparent KD of MS2 coat protein; designed switch direction (-1 OFF switch, 1 ON switch): 1; higher = weaker reporter binding
# setup.conditions: input ligand: FMN 200 uM
Numbers only, in nM.

sequence_string="AGAUCAUGACGAGGAUAUGGUACAUGAGGAUCACCCAUGUAUGUACCACGACGCGUACGUCGAAUCCAGAAGGCGUCGUGAUCA [Mat - Same State NG 2 - JL mod - D16] (Eterna round: R96, puzzle: Same State NG 2)" number=19

Provide apparent KD of MS2 coat protein values for the following items, in order.
1. GGUCGGACUCACAUGAGGAUCACCCAUGUUCCGGAAACGGGAUAGGAUAUCUGUCCGAAAAGGUCAGAGAAGGGUCUACCGACC [Fiskers NG3ss - 55] (Eterna round: R96, puzzle: Same State NG 3)
2. UAGUGCAUUAGAGGAUAUUCUUACGACACGAGUAAGACAUGAGGAUCACCCAUGUCGUGGCAUGGGAAGAAGGCUGAUGUGCUA [Omei SS(NG)2 Bv7] (Eterna round: R96, puzzle: Same State NG 2)
3. UACCGCGCAGAUGCGCAACAUGAGGAUCACCCAUGUGGCACACAGGAUAUCCUGAACAGCUAUUAGGAGAAGGGUGAAGGCCUC [Sotetelequ] (Eterna round: R96, puzzle: Same State NG 3)

1. 1050
2. 14.4
3. 128

Data origin, for the record: the supplement of paper PMC9170038
